Test system: giant foxtail (Setaria faberii)
protocol text: Test B pre-/postemergence
Assay type: in vivo
condition parameters: Rate 250 g/ha, Postemergence
readout: Plant response rating, Giant foxtail

INSERT INTO assay_data (molecule, experimental_result) VALUES
  ('Cc1cnc(-c2ccc(F)cc2F)nc1Cc1cccc(C(F)(F)F)c1 [Compound 31]', 3),
  ('Cc1cnc(-n2ccc(C(F)(F)F)n2)nc1C(=O)c1cccc(C(F)(F)F)c1 [Compound 59]', 8),
  ('Cc1cnc(-c2ccc(Cl)c(Cl)c2)nc1Cc1cccc(C#N)c1 [Compound 38]', 0),
  ('Cc1cnc(-c2cccc(C(F)(F)F)c2)nc1Cc1cccc(C#N)c1 [Compound 39]', 1),
  ('Cc1cnc(-n2ccc(C(F)(F)F)n2)nc1C(=O)c1ccc(C(F)(F)F)cc1 [Compound 65]', 1),
  ('Cc1cnc(-n2ccc(C(F)(F)F)n2)nc1Cc1cccc(OC(F)(F)F)c1 [Compound 42]', 9),
  ('Cc1cnc(-c2ccc(C(F)(F)F)cc2)nc1Cn1cc(I)cn1 [Compound 12]', 3),
  ('Cc1cnc(-c2ccccc2)nc1Cn1ccc(C(F)(F)F)n1 [Compound 7]', 1),
  ('Cc1cnc(-c2ccc(C#N)cc2)nc1Cc1cccc(C(F)(F)F)c1 [Compound 30]', 2),
  ('COC(=O)C(c1cccc(C(F)(F)F)c1)c1nc(-c2ccc(C(F)(F)F)cc2)ncc1C (racemic) [Compound 18]', 1),
  ('CCc1cnc(-n2cnc(C(F)(F)F)n2)nc1Cc1cccc(OC(F)(F)F)c1 [Compound 50]', 2),
  ('CCc1cnc(-c2ccc(C(F)(F)F)cc2)nc1Cc1cccc(OC(F)(F)F)c1 [Compound 41]', 9),
  ('Cc1cnc(-c2ccc(C(F)(F)F)cc2)nc1Cn1cnc(C(F)(F)F)c1 [Compound 10]', 4);
